studySystem: human Claudin 18.2 (CLDN18.2) (human, UniProt P56856-2 1-261)
protocolNotes: cell-based or functional assay
property: % specific cytotoxicity @ 6.67 nM, NUGC4-CLDN18.2, PBMC (%)

282A12F3 (T62A) (antibody, human IgG1, kappa, V domains shown, chimeric human IgG1, PTM site removed; also called 282A12F3-VH-NSA (T62A); 282A12 (T62A)) VH: QVQLKESGPVLVQPSQTLSLTCTVAGFSLTSYNVYWVRQPPGKGLEWMGVIWNTGATRYNSALKSRLSISKDTSKSQVFLKMNSLQTEDTATYYCARDSAMPAIPFAYWGQGTLVTVSS VL: DIVMTQSPSSLAVSAGETVTINCKSSQSLFGSVRQKNYLAWYQQKPGQSPKLLIYLASTRESGVPDRFIGSGSGTDFTLTISSVQAEDLAKYYCQQYYDIPWTFGGGTKLELKR    21
364D1A7-VL-S32V (antibody, human IgG1, kappa, V domains shown, chimeric human IgG1, PTM site removed; also called 364D1A7-VL-32V) VH: DVQLVESGGGLVQPGGSRKLSCAASGFTFSSFGMHWVRQAPEKGLEWVAYISSGSGSIYYADTVKGRFTLSRDNPKNTLFLQMTSLRSEDTAIYYCATSYYYGNALEYWGQGTSVTVSS VL: DVVLTQSPSSLTVTEGEKVSMSCKSSQSLFNVGNQKNYLTWYQQKPGQTPTLLIYWASTRKSGVPDRFTGSGSGTDFTLTINTVQAEDLAVYYCQNVYSYPLTFGAGTKLDLKR    26.6
reference antibody 175D10 (xi175D10) (antibody, human IgG1, kappa, V domains shown, Fc variant D356/L358; also called chimeric 175D10) VH: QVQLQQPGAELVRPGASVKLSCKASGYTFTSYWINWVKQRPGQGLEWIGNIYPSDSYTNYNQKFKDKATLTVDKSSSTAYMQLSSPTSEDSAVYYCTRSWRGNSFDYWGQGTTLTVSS VL: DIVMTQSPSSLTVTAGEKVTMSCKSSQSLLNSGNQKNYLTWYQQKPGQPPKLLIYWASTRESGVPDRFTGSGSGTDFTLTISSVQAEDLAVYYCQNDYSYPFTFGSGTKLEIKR    16.8
413H9F8-VL-S32V (antibody, human IgG1, kappa, V domains shown, chimeric human IgG1, PTM site removed; also called 413H9F8-VL-32V; 413H9F8-VL-532V) VH: DVQLVESGGGSVQPGGSRRLSCAASGFTFSSFGMHWVRQAPEKGLEWVAYISSGSSPIYYVDKLKGRFTVSRDNPKNTLFLQMTSLRSEDTAMYYCARAGYAVRNALDYWGQGTSITVSS VL: DIVMTQSPSSLSVSVGEKVTLSCKSSQSLLNVGNQKNYLAWYQQKTGQPPKLLIYGASTRESGVPDRFIGSGSGTDFTLTISSVQAEDLAVYFCQNDLFYPLTFGAGTKLELKR    31.4
357B8F8-VH-S61I-VL-S32I (antibody, human IgG1, kappa, V domains shown) VH: QVQLKESGPGLVAPSQSLSITCTVSGFSLTSYGVHWVRQPPGKGLEWLGVIWPGGNTNYNIALMSRLSISKDNSKSQVFLKMNSLQTDDTAMYYCARDRRLAMDYWGQGTSVTVSS VL: DIVMTQSPSSLTVTAGEKVTMTCKSSQSLLNIGNQKNYLTWYQQKPGQPPKLLIYWASTRESGVPDRFTGSGSGTDFTLTISILQAEDLAVYYCQNDYSYPFTFGSGTKLEIKR    19.6
